experiment: Metabolic Stability (R); assay type: in vitro ADME; settings: R (not defined)
reportedEndpoint: Metabolic Stability R

- molecule: "CN1CCC(N(C)C(=O)NC(c2ccc(-c3cnccn3)c(Cl)c2Cl)C(F)(F)F)CC1 (centres unmarked)"
  reportedEndpoint: "Metabolic Stability R"
  result: "High"
- molecule: "CCN(C(=O)NC(C)c1ccc(-c2cnccn2)c(Cl)c1Cl)C1CCN(C)CC1 (centres unmarked)"
  reportedEndpoint: "Metabolic Stability R"
  result: "High"

* * *

Task for the reader: assign each of the following compounds its reported pEC50.
target: UniProtKB Q92847; test: Calcium FLIPR assay, GHSR-1a agonism; details: HEK293/GHSR1a cells
Sequence (Q92847 whole entry): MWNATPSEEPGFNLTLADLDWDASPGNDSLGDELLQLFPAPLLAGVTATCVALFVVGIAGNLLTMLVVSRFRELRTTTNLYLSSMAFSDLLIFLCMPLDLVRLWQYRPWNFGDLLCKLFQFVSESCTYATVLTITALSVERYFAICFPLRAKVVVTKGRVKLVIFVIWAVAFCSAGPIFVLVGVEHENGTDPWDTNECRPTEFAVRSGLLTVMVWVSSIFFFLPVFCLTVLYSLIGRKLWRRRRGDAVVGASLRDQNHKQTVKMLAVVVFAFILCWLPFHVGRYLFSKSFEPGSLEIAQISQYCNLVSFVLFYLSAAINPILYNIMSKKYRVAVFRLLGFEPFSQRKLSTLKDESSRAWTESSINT
pEC50: −log10 of the molar value.

# input GET /values?readout=pEC50&item= CC(NC(=O)N(Cc1ccccc1)C1CCN(C)CC1)c1ccc(-c2cnccn2)c(Cl)c1Cl (stereo not shown) [Compound H0825]
# output < 4.52

# input GET /values?readout=pEC50&item= CC(NC(=O)N(C)C1CCN(C)CC1)c1cnc(C#CC2CC2)c(Cl)c1Cl (stereo not shown) [Compound H0884]
# output < 4.52

# input GET /values?readout=pEC50&item= CC(NC(=O)N(C)C1CCN(C)CC1)c1ccc(C#Cc2ccc(CO)s2)c(Cl)c1Cl (stereo not shown) [Compound H0775]
# output < 5.30

# input GET /values?readout=pEC50&item= CC(NC(=O)N(C)C1CCN(C)CC1)c1ccc(-c2ccc(CF)s2)c(Cl)c1Cl (stereo not shown) [Compound H0668]
# output 8.00
